experiment: Half life in mouse plasma; assay type: ADME, cell-free

# compound, unit, half-life
rows = [
    ("C[C@H](CC#CC(C)(C)O)[C@H]1CC[C@@H]2/C(=C/C=C3C[C@@H](O)C[C@H](O)C3)CCC[C@@]21C [INECALCITOL]", "min", 18.3),
]
